Values from ChEMBL document CHEMBL4421722

Organism: Rattus norvegicus
PROTOCOL NOTES: Inhibition of rat recombinant geranylgeranyltransferase type I expressed in Escherichia coli assessed as residual enzyme activity for geranylgeranylation of K-Ras4B at 50 uM incubated for 30 mins in presence of [3H]GGPP by scintillation counting assay relative to control
REPORTED ENDPOINT: Activity (%)

Below, each entry is followed by its recorded Activity result.
[[record]]
test_smiles = "Cc1ccc([C@@H]2C[C@@H](SCc3ccc(C(C)(C)C)cc3)[C@H](C(=O)O)CN2S(=O)(=O)c2ccc(C)cc2)cc1"
reported_endpoint = "Activity"
val = 69.6

[[record]]
test_smiles = "Cc1ccc(S(=O)(=O)N2C[C@@H](C(=O)O)[C@H](SCCC(C)C)C[C@H]2c2ccccc2F)cc1"
reported_endpoint = "Activity"
val = 58.4

[[record]]
test_smiles = "Cc1ccc([C@@H]2CC=C(C(=O)O)[C@H](c3ccc(Cl)cc3)N2S(C)(=O)=O)cc1"
reported_endpoint = "Activity"
val = 79.1

[[record]]
test_smiles = "COc1ccc([C@@H]2CC=C(C(=O)O)[C@H](c3ccc(C)cc3)N2S(=O)(=O)c2ccc(C)cc2)cc1"
reported_endpoint = "Activity"
val = 73.8

[[record]]
test_smiles = "CCc1ccc([C@@H]2C[C@@H](SCc3ccccc3)[C@H](C(=O)O)CN2S(=O)(=O)c2ccc(C)cc2)cc1"
reported_endpoint = "Activity"
val = 63.1

[[record]]
test_smiles = "COc1ccc(S[C@@H]2C[C@@H](c3ccccc3F)N(S(=O)(=O)c3ccc(C)cc3)C[C@H]2C(=O)O)cc1"
reported_endpoint = "Activity"
val = 100

[[record]]
test_smiles = "COc1cccc([C@@H]2C[C@@H](SCC(C)C)[C@H](C(=O)O)CN2S(=O)(=O)c2ccc(C)cc2)c1"
reported_endpoint = "Activity"
val = 64.5

[[record]]
test_smiles = "Cc1ccc(S[C@@H]2C[C@@H](c3cccc(Br)c3)N(S(=O)(=O)c3ccc(C)cc3)C[C@H]2C(=O)O)cc1"
reported_endpoint = "Activity"
val = 94

[[record]]
test_smiles = "CC(=O)C1=CC[C@@H](c2ccc(C)cc2)N(S(=O)(=O)c2ccccc2[N+](=O)[O-])C1"
reported_endpoint = "Activity"
val = 110

[[record]]
test_smiles = "COC(=O)c1ccccc1S(=O)(=O)N1[C@@H](c2ccc(C(C)(C)C)cc2)C(C(=O)O)=CC[C@H]1c1ccc(C)cc1"
reported_endpoint = "Activity"
val = 111


(a) CCCS[C@@H]1C[C@@H](c2ccc(OCC)cc2)N(S(=O)(=O)c2ccc(C)cc2)C[C@H]1C(=O)O
(b) COc1cccc([C@@H]2CC=C(C(=O)O)[C@H](c3cccc(Br)c3)N2S(=O)(=O)c2ccc(C)cc2)c1
### Prompt Choose between a and b : whose measured Activity value is numerically larger? Return value: the label identifying the chosen record.
### Response a

====

Activity by entry:
Species on record: Rattus norvegicus
PROTOCOL NOTES: Inhibition of rat recombinant geranylgeranyltransferase type I expressed in Escherichia coli assessed as residual enzyme activity for geranylgeranylation of K-Ras4B at 50 uM incubated for 30 mins in presence of [3H]GGPP by scintillation counting assay relative to control

Examples with their reported Activity follow.
[[record]]
test_smiles = "CCOc1ccc([C@@H]2C[C@@H](SCCc3ccccc3)[C@H](C(=O)O)CN2S(=O)(=O)c2ccc(C)cc2)cc1"
reported_endpoint = "Activity"
val = "24.6 to 37.2%"

[[record]]
test_smiles = "Cc1ccc(S(=O)(=O)N2[C@@H](c3ccc(Cl)cc3)C(C(=O)O)=CC[C@H]2c2ccc(Cl)c(Cl)c2)cc1"
reported_endpoint = "Activity"
val = "17.7 to 21.3%"

[[record]]
test_smiles = "Cc1ccc(S(=O)(=O)N2C[C@@H](C(=O)O)[C@H](SCc3ccccc3)C[C@H]2c2cccc(Br)c2)cc1"
reported_endpoint = "Activity"
val = "5.5 to 7.6%"

[[record]]
test_smiles = "Cc1ccc([C@@H]2C[C@@H](SCCc3ccccc3)[C@H](C(=O)O)CN2S(=O)(=O)c2ccc(C)cc2)cc1"
reported_endpoint = "Activity"
val = "22.6 to 35.4%"


Please find the next molecule below.
### Prompt Quick one: Activity for Cc1ccc([C@@H]2C[C@@H](SCc3ccc(Cl)cc3)[C@H](C(=O)O)CN2S(=O)(=O)c2ccccc2C)cc1 ?
### Response 19.6 to 20.4%
